Biological target: porcine liver carboxylesterase (CES, EC 3.1.1.1) (Sus scrofa)
Sequence (Q29550 19-566): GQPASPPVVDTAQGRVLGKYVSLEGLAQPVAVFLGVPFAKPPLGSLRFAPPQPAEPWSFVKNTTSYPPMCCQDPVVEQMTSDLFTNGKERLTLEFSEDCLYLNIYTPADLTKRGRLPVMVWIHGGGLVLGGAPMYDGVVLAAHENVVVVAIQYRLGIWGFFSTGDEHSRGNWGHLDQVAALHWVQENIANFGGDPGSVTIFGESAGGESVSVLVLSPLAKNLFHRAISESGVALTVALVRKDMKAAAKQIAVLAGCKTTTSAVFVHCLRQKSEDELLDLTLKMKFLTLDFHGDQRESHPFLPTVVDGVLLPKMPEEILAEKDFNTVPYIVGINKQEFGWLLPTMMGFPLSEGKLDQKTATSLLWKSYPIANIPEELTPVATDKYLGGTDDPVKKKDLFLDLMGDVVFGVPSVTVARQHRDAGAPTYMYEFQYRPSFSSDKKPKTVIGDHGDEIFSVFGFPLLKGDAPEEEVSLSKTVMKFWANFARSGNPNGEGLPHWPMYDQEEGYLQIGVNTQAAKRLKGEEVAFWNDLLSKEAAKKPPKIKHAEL
Test: Inhibition of porcine liver carboxylesterase (4-NPA colorimetric assay)
Format: biochemical
Conditions: 20 µM; n.a. = inactive at 20 µM; mean ± SEM, n = 3
Measurement Name: inhibition at 20 µM (%)
Reply numerically in %, unit not repeated.

A selection of reference data follows.
Cc1ccc(N/N=C2\C(=O)NN=C2C(F)(F)C(F)(F)F)cc1 7.8
Cc1ccc(N/N=C2\C(=O)NN=C2C(F)(F)C(F)(F)C(F)(F)F)cc1 9.9
CS(=O)(=O)c1ccc(N/N=C2\C(=O)N(c3ccccc3)N=C2C(F)(F)C(F)(F)F)cc1 30.8
O=C1/C(=N\Nc2ccc(Cl)cc2Cl)C(C(F)(F)C(F)(F)F)=NN1c1ccccc1 6.6
CS(=O)(=O)c1ccc(N/N=C2\C(=O)N(c3ccccc3)N=C2C(F)(F)F)cc1 20.4
O=C1NN=C(C(F)(F)F)/C1=N/Nc1ccc(Br)cc1 5.5

Fill blank: measured inhibition at 20 µM of the compound Cc1ccc(N/N=C2\C(=O)NN=C2C(F)(F)F)cc1 is ____. 10.1

What inhibition at 20 µM value was documented for this compound, CC1=NN(c2ccccc2)C(=O)/C1=N\Nc1ccc(C)cc1 ? 10.3

* * *

Measured change in vivo at 15 mg/kg by item
Tested on: Sprague-Dawley (SD) rats
Assay: Hot plate test (analgesic activity)
Format: in vivo
Settings: Rattus norvegicus, ip, 2 h, read-out: Latent Period Prolongation, % 2 h
Return type: number; implicit unit %.

Compound	Measurement Name	Measurement Unit	Endpoint Result
Cc1ccc(N/N=C2\C(=O)N(c3ccccc3)N=C2C(F)(F)C(F)(F)C(F)(F)C(F)(F)F)cc1 [8b]	change in vivo at 15 mg/kg	%	125
Cc1ccc(N/N=C2\C(=O)NN=C2C(F)(F)C(F)(F)C(F)(F)F)cc1 [7a]	change in vivo at 15 mg/kg	%	52
Cc1ccc(N/N=C2\C(=O)NN=C2C(F)(F)C(F)(F)C(F)(F)C(F)(F)F)cc1 [8a]	change in vivo at 15 mg/kg	%	40.4

Request the reported change in vivo at 15 mg/kg associated with Cc1ccc(N/N=C2\C(=O)N(c3ccccc3)N=C2C(F)(F)C(F)(F)C(F)(F)F)cc1 [7b] 82.3

* * *

Target: equine serum butyrylcholinesterase (BChE, EC 3.1.1.8) (Equus caballus, UniProt P81908)
Construct: equine serum butyrylcholinesterase (BChE, EC 3.1.1.8); purchased Sigma-Aldrich (Saint Louis, MO, USA); host or cells: equine serum
Sequence (P81908 whole entry): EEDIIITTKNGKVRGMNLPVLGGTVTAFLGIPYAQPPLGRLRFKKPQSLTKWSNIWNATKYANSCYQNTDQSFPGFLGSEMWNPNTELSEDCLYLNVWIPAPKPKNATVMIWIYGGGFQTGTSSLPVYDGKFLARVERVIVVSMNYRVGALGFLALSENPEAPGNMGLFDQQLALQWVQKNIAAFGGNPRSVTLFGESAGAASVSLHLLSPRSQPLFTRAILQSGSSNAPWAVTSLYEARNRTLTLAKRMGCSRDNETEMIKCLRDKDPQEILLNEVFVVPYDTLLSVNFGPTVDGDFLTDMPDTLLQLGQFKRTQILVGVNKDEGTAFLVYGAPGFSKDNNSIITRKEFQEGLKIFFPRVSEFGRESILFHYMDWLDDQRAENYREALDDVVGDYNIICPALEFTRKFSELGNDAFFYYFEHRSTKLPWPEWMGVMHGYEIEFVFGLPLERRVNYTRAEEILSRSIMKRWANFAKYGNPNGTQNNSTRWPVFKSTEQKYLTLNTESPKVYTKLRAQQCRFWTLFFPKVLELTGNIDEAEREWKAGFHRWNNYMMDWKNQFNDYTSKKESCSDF
Assay: Inhibition of equine serum butyrylcholinesterase (Ellman assay)
Assay type: biochemical
Details: read-out: Inhibition % at 20 µM, Equine BChE
Procedure: The following enzymes were purchased from Sigma-Aldrich (Saint Louis, MO, USA): porcine liver carboxylesterase (CES, EC 3.1.1.1), human erythrocyte acetylcholinesterase (AChE, EC 3.1.1.7) and equine serum butyrylcholinesterase (BChE, EC 3.1.1.8). […] Test compounds were dissolved in DMSO. […] Substrate was then added and residual enzyme activity relative to an inhibitor-free control was measured using a Bio-Rad Benchmark Plus microplate reader (Marnes-la-Coquette, France). […]
Quick list: inhibition at 20 µM per entry.
Reply numerically in %, unit not repeated.

Tell me the measured inhibition at 20 µM of O=C1/C(=N\Nc2ccc(F)cc2)C(C(F)(F)F)=NN1c1ccccc1 [5h] , please. 3.2

Which inhibition at 20 µM value is on record for O=C1NN=C(C(F)(F)F)/C1=N/Nc1ccc(Br)cc1 [5c] ? 5.9

Given O=C1/C(=N\Nc2ccccc2Cl)C(C(F)(F)F)=NN1c1ccccc1 [5i] , state its recorded inhibition at 20 µM. 6.4

Name the reported inhibition at 20 µM value associated with the compound NS(=O)(=O)c1ccc(N/N=C2\C(=O)N(c3ccccc3)N=C2C(F)(F)F)cc1 [5n] 3.5

Look at this compound and give its reported inhibition at 20 µM. Cc1ccc(N/N=C2\C(=O)N(c3ccccc3)N=C2C(F)(F)C(F)(F)F)cc1 [6b] 5.7

* * *

# maps each entry to its inhibition at 20 µM
Molecular target: human erythrocyte acetylcholinesterase (AChE, EC 3.1.1.7) (Homo sapiens, UniProt P22303)
Construct: human erythrocyte acetylcholinesterase (AChE, EC 3.1.1.7); purchased Sigma-Aldrich (Saint Louis, MO, USA); host or cells: human erythrocytes
Sequence (P22303 32-617 isoform P22303-2 limits assumed): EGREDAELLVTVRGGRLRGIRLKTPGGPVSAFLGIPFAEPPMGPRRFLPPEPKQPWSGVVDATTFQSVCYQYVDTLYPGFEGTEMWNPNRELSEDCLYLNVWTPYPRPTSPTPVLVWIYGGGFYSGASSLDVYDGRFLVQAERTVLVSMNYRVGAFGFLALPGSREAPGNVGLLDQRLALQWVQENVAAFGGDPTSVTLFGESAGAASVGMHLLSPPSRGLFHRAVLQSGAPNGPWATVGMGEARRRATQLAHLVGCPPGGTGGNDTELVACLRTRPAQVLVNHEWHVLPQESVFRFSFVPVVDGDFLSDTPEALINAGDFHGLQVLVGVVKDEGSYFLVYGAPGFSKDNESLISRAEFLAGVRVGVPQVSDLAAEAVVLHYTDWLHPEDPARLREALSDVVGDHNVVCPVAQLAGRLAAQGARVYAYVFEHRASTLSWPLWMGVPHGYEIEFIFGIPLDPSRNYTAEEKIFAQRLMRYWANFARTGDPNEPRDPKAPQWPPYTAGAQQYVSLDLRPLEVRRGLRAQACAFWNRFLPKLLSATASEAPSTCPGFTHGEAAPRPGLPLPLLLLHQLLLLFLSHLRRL
Test: Inhibition of human erythrocyte acetylcholinesterase (Ellman assay)
Type: biochemical
Details: read-out: Inhibition % at 20 µM, Human AChE
Express the result in % but write the number alone.

Cc1ccc(N/N=C2\C(=O)NN=C2C(F)(F)C(F)(F)C(F)(F)F)cc1 35.6
O=C1/C(=N\Nc2ccc(F)cc2)C(C(F)(F)F)=NN1c1ccccc1 7
CCOC(=O)c1ccc(N/N=C2\C(=O)N(c3ccccc3)N=C2C(F)(F)C(F)(F)F)cc1 6.2

May I ask what inhibition at 20 µM has been recorded for Cc1ccc(N/N=C2\C(=O)N(c3ccccc3)N=C2C(F)(F)C(F)(F)F)cc1 ? 8.3

Which inhibition at 20 µM value belongs to Cc1ccc(N/N=C2\C(=O)N(c3ccc(S(C)(=O)=O)cc3)N=C2C(F)(F)F)cc1 ? 4.3

Need inhibition at 20 µM of CS(=O)(=O)c1ccc(N/N=C2\C(=O)N(c3ccccc3)N=C2C(F)(F)C(F)(F)F)cc1 , thanks. 4.1

Which value of inhibition at 20 µM has been reported for O=C1/C(=N\Nc2ccccc2Cl)C(C(F)(F)C(F)(F)F)=NN1c1ccccc1 in the records? 3.3

Given the entry COc1ccc(N/N=C2\C(=O)N(c3ccccc3)N=C2C(F)(F)F)cc1 , report its measured inhibition at 20 µM. 12.3

What value of inhibition at 20 µM has been recorded for this entry: CS(=O)(=O)c1ccc(N/N=C2\C(=O)N(c3ccccc3)N=C2C(F)(F)F)cc1 5.5

Entry O=C1/C(=N\Nc2ccc(Br)cc2)C(C(F)(F)F)=NN1c1ccccc1 has what inhibition at 20 µM? 5.4

* * *

Test system: HeLa tumor cell line
Assay: Cytotoxicity against HeLa cells (MTT assay)
Format: cell-based, human
Settings: ratio of average IC50 in normal fibroblasts to average IC50 for HeLa
Record yes whenever Selectivity Index (SI) is at 5 or higher; record no when lower.

Example entries and their recorded answers appear below.
Cc1ccc(N/N=C2\C(=O)N(c3ccccc3)N=C2C(F)(F)F)cc1 no
Cc1ccc(N/N=C2\C(=O)N(c3ccccc3)N=C2C(F)(F)C(F)(F)F)cc1 no
Cc1ccc(N/N=C2\C(=O)NN=C2C(F)(F)C(F)(F)F)cc1 yes
CC1=NN(c2ccccc2)C(=O)/C1=N\Nc1ccc(C)cc1 no

Please check the record Cc1ccc(N/N=C2\C(=O)NN=C2C(F)(F)F)cc1 and state if its Selectivity Index (SI) is at or above 5. no

Please check the record Cc1ccc(N/N=C2\C(=O)N(c3ccccc3)N=C2C(F)(F)C(F)(F)C(F)(F)F)cc1 and state if its Selectivity Index (SI) is at or above 5. no

hey, is Selectivity Index (SI) for this one >= 5? CC1=NNC(=O)/C1=N\Nc1ccc(C)cc1 yes

* * *

Biological target: equine serum butyrylcholinesterase (BChE, EC 3.1.1.8) (Equus caballus, UniProt P81908)
Construct: equine serum butyrylcholinesterase (BChE, EC 3.1.1.8); purchased Sigma-Aldrich (Saint Louis, MO, USA); host or cells: equine serum
Experiment: Inhibition of equine serum butyrylcholinesterase (Ellman assay)
Type: biochemical
Settings: read-out: Inhibition % at 20 µM, Equine BChE
Procedure: The following enzymes were purchased from Sigma-Aldrich (Saint Louis, MO, USA): porcine liver carboxylesterase (CES, EC 3.1.1.1), human erythrocyte acetylcholinesterase (AChE, EC 3.1.1.7) and equine serum butyrylcholinesterase (BChE, EC 3.1.1.8). […] Test compounds were dissolved in DMSO. […] Substrate was then added and residual enzyme activity relative to an inhibitor-free control was measured using a Bio-Rad Benchmark Plus microplate reader (Marnes-la-Coquette, France). […]
We begin with a simple list: items and their reported inhibition at 20 µM.
Numbers only; they are read as %.

Cc1ccc(N/N=C2\C(=O)N(c3ccc(C)cc3)N=C2C(F)(F)F)cc1 4
O=C1/C(=N\Nc2c(Cl)cccc2Cl)C(C(F)(F)F)=NN1c1ccccc1 7.1
O=C1/C(=N\Nc2ccc(S(=O)(=O)O)cc2)C(C(F)(F)F)=NN1c1ccccc1 7.4
CC1=NNC(=O)/C1=N\Nc1ccc(C)cc1 4.3
O=C1/C(=N\Nc2ccc(Cl)cc2Cl)C(C(F)(F)C(F)(F)F)=NN1c1ccccc1 4.3

Recorded inhibition at 20 µM for Cc1ccc(N/N=C2\C(=O)NN=C2C(F)(F)C(F)(F)F)cc1 with equine serum butyrylcholinesterase (BChE, EC 3.1.1.8) (Equus caballus, UniProt P81908), please? 3.3

Find the measured inhibition at 20 µM: item O=C1/C(=N\Nc2ccccc2)C(C(F)(F)F)=NN1c1ccccc1 , target or system equine serum butyrylcholinesterase (BChE, EC 3.1.1.8) (Equus caballus, UniProt P81908). 5.1

Test system equine serum butyrylcholinesterase (BChE, EC 3.1.1.8) (Equus caballus, UniProt P81908); read-out inhibition at 20 µM; what value for O=C1/C(=N\Nc2ccccc2Cl)C(C(F)(F)C(F)(F)F)=NN1c1ccccc1 ? 6.5

Find the measured inhibition at 20 µM: item CS(=O)(=O)c1ccc(N/N=C2\C(=O)N(c3ccccc3)N=C2C(F)(F)F)cc1 , target or system equine serum butyrylcholinesterase (BChE, EC 3.1.1.8) (Equus caballus, UniProt P81908). 4

Provide value of inhibition at 20 µM for this record tested with equine serum butyrylcholinesterase (BChE, EC 3.1.1.8) (Equus caballus, UniProt P81908): Cc1ccc(N/N=C2\C(=O)N(c3ccccc3)N=C2C(F)(F)C(F)(F)C(F)(F)F)cc1 4.5
